# System: HIV-1 integrase (HIV-1)
# Method Summary: cell-based or functional assay
Items are presented alongside their recorded EC50 (µM) 3′processing.
Assay Readout: EC50 (µM) 3′processing

[
  {
    "Binder": "GTKWLTEWIPL (modifications not checked) [P24]",
    "Assay Readout": "EC50 (µM) 3′processing",
    "Val": "33 µM"
  },
  {
    "Binder": "GTKWLTEWIPLTAEAE (modifications not checked) [PAW]",
    "Assay Readout": "EC50 (µM) 3′processing",
    "Val": "12 µM"
  },
  {
    "Binder": "GTKWLTEVWPL (modifications not checked) [P16]",
    "Assay Readout": "EC50 (µM) 3′processing",
    "Val": "10 µM"
  },
  {
    "Binder": "KWLTEWIPLTAEAE (modifications not checked) [P26]",
    "Assay Readout": "EC50 (µM) 3′processing",
    "Val": "28 µM"
  },
  {
    "Binder": "GTKWLTEWIPLTAE (modifications not checked) [P27]",
    "Assay Readout": "EC50 (µM) 3′processing",
    "Val": "> 100 µM"
  }
]
